src = the Immune Epitope Database (IEDB)

The following sequences are shown together with reported IC50 values.
Target: HLA-A*01:01
Assay: IEDB peptide-MHC binding, purified MHC/competitive/radioactivity; bounds were set here for any values at or beyond the usual limits of such assays
Settings: source organism: Triticum aestivum

Example entries and their recorded answers appear below.
[[record]]
primary_sequence = "QLEAIRSLV"
recorded_measurement = "17.1 µM"

[[record]]
primary_sequence = "MAMKIATAA"
recorded_measurement = "≥ 100 µM"

[[record]]
primary_sequence = "MNIASASRL"
recorded_measurement = "≥ 100 µM"

[[record]]
primary_sequence = "SSQVLQQSTY"
recorded_measurement = "0.103 µM"

[[record]]
primary_sequence = "AMAMKIATA"
recorded_measurement = "≥ 100 µM"

[[record]]
primary_sequence = "FPQQQRPFI"
recorded_measurement = "≥ 100 µM"


Please give the measured IC50 for this sequence: `VSFQQPQQQY`
0.365 µM

Please give the measured IC50 for this sequence: `QGMHILLPL`
≥ 100 µM

Please give the measured IC50 for this sequence: `FLLQQCKPV`
≥ 100 µM

Please give the measured IC50 for this sequence: `MKTFLILAL`
≥ 100 µM

Please give the measured IC50 for this sequence: `VMRQQCCQQL`
≥ 100 µM

###

Biological target: HLA-B*08:01
Assay: IEDB peptide-MHC binding, purified MHC/competitive/radioactivity; bounds were set here for any values at or beyond the usual limits of such assays
Settings: source organism: Triticum aestivum
pIC50: −log10 of the molar value.
Classify as follows. Reported pIC50 greater than or equal to 7: label 1. Reported pIC50 below: label 0.

These recorded examples may help you get a feel for the data.
[[record]]
primary_sequence = "LEAIRSLVL"
answer_label = "label 0"

[[record]]
primary_sequence = "MAMKIATAA"
answer_label = "label 1"

[[record]]
primary_sequence = "LLQQSKPASL"
answer_label = "label 1"

[[record]]
primary_sequence = "CAAIHTIIH"
answer_label = "label 0"

[[record]]
primary_sequence = "AMAMKIATA"
answer_label = "label 1"


Now consider the entry below.
Tell me whether pIC50 is at least 7 here: `VSFQQPQQQY`
label 0

###

Biological target: HLA-A*01:01
Test: IEDB peptide-MHC binding, purified MHC/competitive/radioactivity; bounds were set here for any values at or beyond the usual limits of such assays
Details: source organism: Triticum aestivum
pIC50: −log10 of the molar value.
ENDPOINT LABEL: pIC50

Example entries and their recorded answers appear below.
[[record]]
primary_sequence = "LLQQCKPVSL"
recorded_measurement = "≤ 4.00"

[[record]]
primary_sequence = "LAMAMKIATA"
recorded_measurement = "≤ 4.00"

[[record]]
primary_sequence = "WLQQQLVPQL"
recorded_measurement = "≤ 4.00"

[[record]]
primary_sequence = "LIPCRDVVL"
recorded_measurement = "≤ 4.00"

[[record]]
primary_sequence = "LEAIRSLVL"
recorded_measurement = "≤ 4.00"

[[record]]
primary_sequence = "LQQCKPVSL"
recorded_measurement = "≤ 4.00"


Missing value: pIC50, HLA-A*01:01, entry `LLQQSKPASL` . Fill in?
4.47

Missing value: pIC50, HLA-A*01:01, entry `CAAIHTIIH` . Fill in?
≤ 4.00

Missing value: pIC50, HLA-A*01:01, entry `LLSPRGKEL` . Fill in?
≤ 4.00
